Data origin, for the record: patent US20060014723A1

Tested on: P. falciparum K1
experiment summary: Malaria in vitro screening model (3H-hypoxanthine incorporation)
Assay type: cell-based, Plasmodium falciparum
conditions: Plasmodium falciparum, K1
observed property: IC50 (µg/mL)
Number only, in µg/mL; omit the unit.

- Fc1ccc(B(Oc2cccc3cccnc23)c2ccc(F)c(Cl)c2)cc1Cl: 1.5
- Fc1cccc(C=CBOc2cccc3cccnc23)c1: 122
- Fc1cccc(B(Oc2cccc3cccnc23)c2ccccc2Cl)c1: 1.74

Give the measured IC50 for `Cc1ccc(B(Oc2cccc3cccnc23)c2ccccc2)cc1Cl`
1.5

Give the measured IC50 for `N#Cc1ccc(B(Oc2cccc3cccnc23)c2cc(F)ccc2F)cc1`
1.74

Give the measured IC50 for `COc1ccc(B(Oc2cccc3cccnc23)c2cccc(Cl)c2)cc1OC`
1.7

Give the measured IC50 for `Cc1cc(B(Oc2cccc3cccnc23)c2cccc(C#N)c2)ccc1Cl`
1.83

Give the measured IC50 for `N#Cc1cccc(B(Oc2cccc3cccnc23)c2cccc(F)c2)c1`
1.83

Give the measured IC50 for `Fc1ccc(F)c(B(Oc2cccc3cccnc23)c2ccc(Cl)cc2)c1`
1.72

* * *

Test system: T. b. rhodesiense STIB 900
experiment summary: African sleeping sickness in vitro screening model (Alamar Blue)
Assay type: cell-based, Trypanosoma brucei rhodesiense
Experimental: Bloodstream from trypomastigotes of the strains (a) and (c) are maintained in Minimal Essential Medium (MEM) with Earle's salts supplemented according to Baltz, et al., (EMBO J. 4:1273-1277, 1985) with 25 mM N-2-hydroxyethylpiperazine-N′-2-ethane-sulphonic acid (HEPES), 1 g/L additional glucose, 1% MEM non-essential amino acids (100×), 0.2 mM 2-mercaptoethanol, 2 mM sodium pyruvate, 0.1 mM hypoxanthine and 15% heat-inactivated horse serum. […]
Listed here are molecules together with their documented T. b. rhodesiense IC50.
Number only, in µg/mL; omit the unit.

// worked examples, T. b. rhodesiense IC50 included
- C=CB(Oc1cccc2cccnc12)c1cccnc1 [Compound 49]: 0.2185
- Cc1ccc2c(Cl)cc(Cl)c(OB(c3ccc(Cl)cc3)c3ccc(Cl)cc3)c2n1: 1.06
- C=CB(Oc1cccc2cccnc12)c1ccc(OC)nc1: 0.305

Give the measured T. b. rhodesiense IC50 for `N#Cc1ccc(B(Oc2cccc3cccnc23)c2ccc(F)cc2F)cc1`
0.345

Give the measured T. b. rhodesiense IC50 for `N#Cc1cccc(B(Oc2cccc3cccnc23)c2cccnc2)c1`
0.49

Give the measured T. b. rhodesiense IC50 for `C=CB(Oc1cccc2cccnc12)c1ccc(CN(C)C)cc1.Cl`
0.445

Give the measured T. b. rhodesiense IC50 for `CC1(C)COC(c2cccc(B(Oc3cccc4cccnc34)c3cccc(C4=NC(C)(C)CO4)c3)c2)=N1`
0.5

Give the measured T. b. rhodesiense IC50 for `CC1(C)COC(c2cccc(B(Oc3c(Cl)cc(Cl)c4cccnc34)c3cccc(F)c3)c2)=N1`
1.9

Give the measured T. b. rhodesiense IC50 for `C=CB(Oc1c(Cl)cc(Cl)c2ccc(C)nc12)c1cccc(N(C)C)c1`
0.915

Give the measured T. b. rhodesiense IC50 for `O=C(OB(c1cccc(Cl)c1)c1cccc(Cl)c1)c1ncccc1OCCN1CCOCC1`
17.2

Give the measured T. b. rhodesiense IC50 for `N#Cc1cccc(B(Oc2cccc3cccnc23)c2cc(F)ccc2F)c1`
0.39

* * *

System: Trypanosoma cruzi Tulahuen C2C4 strain
experiment summary: Chagas disease in vitro screening model (beta-galactosidase strain in L-6 cells)
Type: cell-based
conditions: Trypanosoma cruzi, TULAHUEN, L6; read-out: T. cruzi IC50
# note: exactly 0.9 µg/mL is not below, so it is n; use y for IC50 strictly under it

Example results:
• Fc1cccc(B(Oc2cccc3cccnc23)c2cccc(Cl)c2)c1 = n
• N#Cc1cccc(B(Oc2cccc3cccnc23)c2cccc(F)c2)c1 = y
• Fc1cccc(B(Oc2cccc3cccnc23)c2ccc(Cl)cc2)c1F = n
• Fc1cccc(B(Oc2cccc3cccnc23)c2ccc(Cl)cc2F)c1 = y
• Cc1cc(B(Oc2cccc3cccnc23)c2ccc(C#N)cc2)ccc1Cl = y

For this compound, is IC50 lower than 0.9 µg/mL? `N#Cc1cccc(B(Oc2cccc3cccnc23)c2cc(F)ccc2F)c1`
y

* * *

Tested on: T. b. rhodesiense STIB 900
experiment summary: African sleeping sickness in vitro screening model (Alamar Blue)
Assay type: cell-based, Trypanosoma brucei rhodesiense
# if value of T. b. rhodesiense IC50 reaches 0.9 µg/mL, tag yes (1); if it stays below, tag no (0)

Example results:
* N#Cc1ccc(B(Oc2cccc3cccnc23)c2cccc(Cl)c2)cc1 | no (0)
* Fc1ccc(B(Oc2cccc3cccnc23)c2cccc(Cl)c2)cc1 | no (0)
* Cc1ccc(B(OC(=O)c2ncccc2O)c2ccc(C)c(Cl)c2)cc1Cl [Compound 127] | yes (1)

Could you please find out whether `N#Cc1ccc(B(Oc2cccc3cccnc23)c2cc(F)cc(C(F)(F)F)c2)cc1` has T. b. rhodesiense IC50 that meets 0.9 µg/mL or exceeds it?
no (0)

Could you please find out whether `COC(=O)c1cccnc1C(=O)OB(c1ccc(C)c(Cl)c1)c1ccc(C)c(Cl)c1` has T. b. rhodesiense IC50 that meets 0.9 µg/mL or exceeds it?
yes (1)

Could you please find out whether `CN(C)Cc1ccc(B(Oc2cccc3cccnc23)c2ccc(F)c(F)c2)cc1` has T. b. rhodesiense IC50 that meets 0.9 µg/mL or exceeds it?
no (0)

* * *

Test system: T. b. rhodesiense STIB 900
experiment summary: African sleeping sickness in vitro screening model (Alamar Blue)
Assay type: cell-based, Trypanosoma brucei rhodesiense
// bucketize T. b. rhodesiense IC50: low (below 0.4 µg/mL), middle (0.4 µg/mL to below 0.7 µg/mL), high (0.7 µg/mL or more)

- Cc1ccc(B(Oc2cccc3cccnc23)c2ccco2)cc1Cl: low
- Nc1cccc(C(=O)OB(c2ccc(Cl)cc2)c2ccc(Cl)cc2)n1 [Compound 131]: high
- O=C(OB(c1ccc(Cl)cc1)c1ccc(Cl)cc1)c1cccc(O)n1: high
- N#Cc1ccc(B(Oc2cccc3cccnc23)c2ccc(F)c(F)c2)cc1: low
- C=CB(Oc1cccc2cccnc12)c1cccnc1 [Compound 94]: middle
- CN(C)Cc1ccc(B(Oc2cccc3cccnc23)c2ccc(Cl)cc2)cc1.O=C(O)/C=C/C(=O)O: low
- C=CB(Oc1cccc2cccnc12)c1ccco1: low

Please report the category associated with `C=CB(Oc1cccc2cccnc12)c1ccc(CN(C)C)cc1` , nothing else.
middle

* * *

System: Trypanosoma cruzi Tulahuen C2C4 strain
experiment summary: Chagas disease in vitro screening model (beta-galactosidase strain in L-6 cells)
Type: cell-based
conditions: Trypanosoma cruzi, TULAHUEN, L6; read-out: T. cruzi IC50
observed property: IC50 (µg/mL)
Number only, in µg/mL; omit the unit.

- Fc1cc(B(Oc2cccc3cccnc23)c2ccc(Cl)cc2)cc(C(F)(F)F)c1: 1.7
- Fc1cccc(C=CBOc2cccc3cccnc23)c1: 1.41
- N#Cc1ccc(B(Oc2cccc3cccnc23)c2cc(F)ccc2F)cc1: 0.705
- Fc1ccc(F)c(B(Oc2cccc3cccnc23)c2ccc(Cl)cc2)c1: 0.89
- COc1ccc(B(Oc2cccc3cccnc23)c2cccc(Cl)c2)cc1OC: 3.2
- Fc1ccc(B(Oc2cccc3cccnc23)c2ccc(F)c(Cl)c2)cc1Cl: 5.6
- Cc1ccc(B(Oc2cccc3cccnc23)c2ccccc2)cc1Cl: 4.2
- N#Cc1ccc(B(Oc2cccc3cccnc23)c2ccc(F)cc2)cc1: 0.845
- Fc1ccc(B(Oc2cccc3cccnc23)c2ccc(Cl)cc2)cc1: 0.906
- Cc1cc(B(Oc2cccc3cccnc23)c2cccc(C#N)c2)ccc1Cl: 0.79

Given `Fc1cccc(B(Oc2cccc3cccnc23)c2ccccc2Cl)c1` , report its IC50 on Trypanosoma cruzi Tulahuen C2C4 strain.
0.82

Given `COc1cc(B(Oc2cccc3cccnc23)c2cccc(F)c2)ccc1Cl` , report its IC50 on Trypanosoma cruzi Tulahuen C2C4 strain.
1.15

Given `CC1(C)COC(c2cccc(B(Oc3cccc4cccnc34)C3CC3)c2)=N1` , report its IC50 on Trypanosoma cruzi Tulahuen C2C4 strain.
0.86

* * *

Tested on: P. falciparum K1
experiment summary: Malaria in vitro screening model (3H-hypoxanthine incorporation)
Format: cell-based, Plasmodium falciparum
conditions: Plasmodium falciparum, K1
Listed here are compounds together with their documented IC50.

// worked examples, IC50 included
• N#Cc1ccc(B(Oc2cccc3cccnc23)c2ccc(F)cc2)cc1 = 1.46 µg/mL
• CC1(C)COC(c2cccc(B(Oc3cccc4cccnc34)C3CC3)c2)=N1 = 1.84 µg/mL
• Cc1ccccc1B(Oc1cccc2cccnc12)c1cccc(Cl)c1 = 1.81 µg/mL
• COc1cc(B(Oc2cccc3cccnc23)c2cccc(F)c2)ccc1Cl = 1.84 µg/mL
• Fc1ccc(B(Oc2cccc3cccnc23)c2cccc(Cl)c2)cc1 = 1.9 µg/mL
• N#Cc1cccc(B(Oc2cccc3cccnc23)c2ccccc2F)c1 = 1.79 µg/mL
• Fc1cccc(B(Oc2cccc3cccnc23)c2ccc(Cl)cc2)c1F = 1.83 µg/mL
• Fc1cccc(B(Oc2cccc3cccnc23)c2ccc(Cl)cc2F)c1 = 1.83 µg/mL

Now look at this one.
Give the measured IC50 for `Fc1cccc(B(Oc2cccc3cccnc23)c2cccc(Cl)c2)c1`
1.77 µg/mL
